B1: F1*; the commonest letter at each place (parent)
chain: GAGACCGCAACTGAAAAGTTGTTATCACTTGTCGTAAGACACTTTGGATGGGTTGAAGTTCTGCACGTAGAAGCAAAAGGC

variants of: B1; assay: fraction ligated after 30 min (ligated reads / total reads); higher = more ligase activity; settings: with F1*sub RNA substrate (template-directed ligation), 42 °C
readout-kind: fraction ligated
Numbers only.

Worked set:
mutant: T29C A41T
number: 0.788
//
mutant: C40A T44G
number: 0.779
//
mutant: A39G G46C
number: 0.781
//
mutant: C28G T30A
number: 0.802
//
mutant: A24T T44C
number: 0.778

// for each variant below, give its fraction ligated
1. G34T C40A
2. A27T G46A
3. T23G C28A
4. A36G T43A

[0.802, 0.817, 0.789, 0.823]

The following variants each have a reported value; give each one's fraction ligated.
1. A36T G47A
2. G31T G46A
3. T23C G38T
4. A36C G55C
5. A27T G55A
6. C26T T32C
7. G38A T43C
8. A37T G46T

[0.8, 0.79, 0.803, 0.787, 0.812, 0.792, 0.816, 0.784]

// each listed variant needs a value for fraction ligated
1. T45G A57T
2. A27C T32A
3. T43G A57T
4. G34A G46A
5. A36G A56G

[0.8, 0.799, 0.799, 0.807, 0.814]

State the recorded fraction ligated for every item in the following list.
1. C28T A41C
2. C33G G47A
3. C40T A56T
4. T30C A37T

1. 0.792
2. 0.791
3. 0.799
4. 0.805
